- Assay comment: in vitro
- Experimental setup: human, hek293t cells
Please provide measured viability at 48 h, 25 µM for the entries that follow.
// units = %; emit number, no label

Request: Identify the reported viability at 48 h, 25 µM for the following entry. CC(Cl)C(=O)N1CCC(Oc2ccc(C3CC3)cn2)C1 (stereo not shown) [7-A18]
Response: 60.4

Request: Identify the reported viability at 48 h, 25 µM for the following entry. CCCn1c(C)cc(C=C(C#N)C(=O)Nc2ccc3c(c2)OCO3)c1C [9-G07]
Response: 100

Request: Identify the reported viability at 48 h, 25 µM for the following entry. O=C(CCl)N1N=C(c2cccs2)CC1c1ccc(F)cc1 (stereo not shown) [4-O20]
Response: 0.502

Request: Identify the reported viability at 48 h, 25 µM for the following entry. N#CC(=Cc1cccc(Cl)c1)C(=O)NCc1ccccc1 [9-L13]
Response: 39.5

Request: Identify the reported viability at 48 h, 25 µM for the following entry. C=CC(=O)NC1CC(=O)N(CC)C1 (stereo not shown) [2-O22]
Response: 91.7

Request: Identify the reported viability at 48 h, 25 µM for the following entry. CNC(=O)C(C#N)=Cc1cccc(-c2ccncc2)c1 [9-L14]
Response: 108

Request: Identify the reported viability at 48 h, 25 µM for the following entry. O=C(CCl)Nc1nc2ccc([N+](=O)[O-])cc2s1 [4-H08]
Response: 0.244

Request: Identify the reported viability at 48 h, 25 µM for the following entry. CC(NC(=O)C(C#N)=Cc1ccccc1F)c1ccccc1 (stereo not shown) [8-P16]
Response: 61.8

Request: Identify the reported viability at 48 h, 25 µM for the following entry. CCCc1ccc(C(=O)CCl)cc1 [10-C04, 2-chloro-1-(4-propylphenyl)ethan-1-one]
Response: 54.6

Request: Identify the reported viability at 48 h, 25 µM for the following entry. C=CC(=O)NCc1coc(-c2cccs2)n1 [1-C07]
Response: 70.1

Request: Identify the reported viability at 48 h, 25 µM for the following entry. C=CC(=O)N1CCCn2cccc2C12CCOCC2 [1-A22]
Response: 109

Request: Identify the reported viability at 48 h, 25 µM for the following entry. C=CC(=O)NCc1cn(C2CCCC2)nc1C [3-N21]
Response: 55.5

Request: Identify the reported viability at 48 h, 25 µM for the following entry. C=CC(=O)NCc1cn2c(n1)CCCC2 [3-L20]
Response: 103

Request: Identify the reported viability at 48 h, 25 µM for the following entry. CCCN(Cc1ccc(C)cc1)C(=O)CCl [5-J09]
Response: 0.952

Request: Identify the reported viability at 48 h, 25 µM for the following entry. Cc1ccccc1NC(=O)C(C#N)=Cc1cc2c(cc1[N+](=O)[O-])OCO2 [9-P11]
Response: 120

Request: Identify the reported viability at 48 h, 25 µM for the following entry. CC(Cl)C(=O)NCCC1(CO)CC1 (stereo not shown) [7-H19]
Response: 90.1

Request: Identify the reported viability at 48 h, 25 µM for the following entry. CC(Cl)C(=O)NC1CS(=O)(=O)Cc2ccccc21 (stereo not shown) [6-L20]
Response: 93.5

Request: Identify the reported viability at 48 h, 25 µM for the following entry. CC(Cl)C(=O)Nc1ccccc1[N+](=O)[O-] (stereo not shown) [4-G18, 2-chloro-N-(2-nitrophenyl)propanamide]
Response: 103

Request: Identify the reported viability at 48 h, 25 µM for the following entry. CC(C)NC(=O)C(C#N)=Cc1ccc(Cl)c(Cl)c1 [9-M07]
Response: 30.2

Request: Identify the reported viability at 48 h, 25 µM for the following entry. CC(Cl)C(=O)N1CCOCC1c1nc(-c2cccs2)no1 (stereo not shown) [7-B17]
Response: 75.7

Request: Identify the reported viability at 48 h, 25 µM for the following entry. COCCNC(=O)C(C#N)=Cc1c(F)cccc1Cl [8-O21]
Response: 94.2

Request: Identify the reported viability at 48 h, 25 µM for the following entry. Cc1ccc(C=C(C#N)C(=O)Nc2cccc3ccccc23)cc1 [8-M14]
Response: 121
